Tested on: human red blood cells
Assay: Hemolytic ability (Example 3)
Type: cell-based
Details: concentration that causes 50% hemolysis
Residues, ends and D or L forms follow the SMILES beside them.

molecule | inequality symbol | HL50 (µM)
CC(C)C[C@H](NC(=O)[C@H](Cc1c[nH]c2ccccc12)NC(=O)[C@H](Cc1c[nH]c2ccccc12)NC(=O)[C@@H](N)Cc1c[nH]c2ccccc12)C(=O)N[C@@H](CCCNC(=N)N)C(=O)N[C@@H](CCCNC(=N)N)C(=O)N[C@@H](CCCNC(=N)N)C(=O)N[C@@H](Cc1c[nH]c2ccccc12)C(N)=O [Peptide I7R, WWWLRRRW] (H-WWWLRRRW-NH2; N-terminus assumed) | = | 150
CC[C@H](C)[C@H](NC(=O)[C@H](CCCNC(=N)N)NC(=O)[C@H](CCCNC(=N)N)NC(=O)[C@H](CCCNC(=N)N)NC(=O)[C@H](Cc1c[nH]c2ccccc12)NC(=O)[C@H](Cc1c[nH]c2ccccc12)NC(=O)[C@@H](N)Cc1c[nH]c2ccccc12)C(=O)N[C@@H](Cc1c[nH]c2ccccc12)C(N)=O [Peptide L4R, WWWRRRIW] (H-WWWRRRIW-NH2; N-terminus assumed) | > | 200
CC[C@H](C)[C@H](NC(=O)[C@H](CCCNC(=N)N)NC(=O)[C@H](CCCNC(=N)N)NC(=O)[C@H](CC(C)C)NC(=O)[C@H](Cc1c[nH]c2ccccc12)NC(=O)[C@H](Cc1c[nH]c2ccccc12)NC(=O)[C@@H](N)Cc1c[nH]c2ccccc12)C(=O)N[C@@H](Cc1c[nH]c2ccccc12)C(N)=O [TetraF2W-RR, WWWLRRIW] (H-WWWLRRIW-NH2; N-terminus assumed) | = | 35
CC[C@H](C)[C@H](NC(=O)[C@H](CCCNC(=N)N)NC(=O)[C@H](CCCNC(=N)N)NC(=O)[C@H](CC(C)C)NC(=O)[C@H](Cc1c[nH]c2ccccc12)NC(=O)[C@H](Cc1c[nH]c2ccccc12)NC(=O)[C@@H](N)CCCNC(=N)N)C(=O)N[C@@H](Cc1c[nH]c2ccccc12)C(N)=O [Peptide W1R, RWWLRRIW] (H-RWWLRRIW-NH2; N-terminus assumed) | > | 200
